Values from ChEMBL document CHEMBL5038667

Test system: HeLa
experimental_details: Dark toxicity against human HeLa cells assessed as reduction in cell viability incubated for 16 hrs by CCK-8 assay
Assay type: functional, cell-based
pIC50: −log10 of the molar value.
# reported pIC50; entries follow

These recorded examples may help you get a feel for the data.
substance_smiles | pIC50
COc1ccc2c(c1)CCc1c(-c3ccccc3)c3n(c1-2)[B-](F)(F)[N+]1=C(c2ccc(OCC(=O)N[C@@H](CC(=O)O)C(=O)O)cc2)C(I)=C(c2ccccc2)C1=N3 | < 3.60
COc1ccc2c(c1)CCc1c(-c3ccccc3)c3n(c1-2)[B-](F)(F)[N+]1=C(c2ccc(OCC(=O)N[C@@H](CCC(=O)O)C(=O)O)cc2)C(I)=C(c2ccccc2)C1=N3 | < 3.60

Incoming: I would be grateful if you could share the reported pIC50 for COc1ccc(C2=[N+]3C(=Nc4c(-c5ccccc5)c5c(n4[B-]3(F)F)-c3ccc(OCC(=O)N[C@@H](CCC(=O)O)C(=O)O)cc3CC5)C(c3ccccc3)=C2I)cc1 .
Outgoing: < 3.60

----------
experimental_details: Aqueous solubility in PBS
Format: physicochemical
condition_description: buffer
test_readout: solubility (µM)
Give the value, in units of µM, as a plain number.

// known answers, use as guide
substance_smiles | test_readout | unit_name | recorded_number
COc1ccc(C2=[N+]3C(=Nc4c(-c5ccccc5)c5c(n4[B-]3(F)F)-c3ccc(OCC(=O)N[C@@H](CCC(=O)O)C(=O)O)cc3CC5)C(c3ccccc3)=C2I)cc1 | solubility | µM | 158
COc1ccc(C2=[N+]3C(=Nc4c(-c5ccccc5)c5c(n4[B-]3(F)F)-c3ccc(OCC(=O)O)cc3CC5)C(c3ccccc3)=C2I)cc1 | solubility | µM | 28.4

Please look at the following molecule next.
Incoming: Report solubility for COc1ccc2c(c1)CCc1c(-c3ccccc3)c3n(c1-2)[B-](F)(F)[N+]1=C(c2ccc(OCC(=O)O)cc2)C(I)=C(c2ccccc2)C1=N3 please.
Outgoing: 21.8
